Would you mind telling me the reported normalized growth of each entry?
Assay: chemical genetic growth profiling, strain panel (AID 1159580);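 also: tested at 20 µM; growth read once vehicle control cultures reached saturation at 30 °C; 1 = growth at the plate median or of vehicle wells; lower values mean less growth of the strain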
Settings: S. cerevisiae deletion strains, growth OD, locus YKL193C, strain SDS22, active compounds read low
Among all 5,500 compounds or so, about 2,000 (36%) were called active. About 18% were inconclusive and are not listed. The list shows a part of the results.
Answers are plain numbers.

Molecule: Cc1nc(-c2ccccn2)[nH]c(=O)c1Cc1c(Cl)cccc1Cl
normalized growth: 0.951
--
Molecule: Cc1oc(C(C)(C)C)cc1-c1cc(N)n(-c2ccc(I)cc2)n1
normalized growth: 1.02
--
Molecule: N#Cc1c2ccccc2nc2ccccc12
normalized growth: 0.803
--
Molecule: Cc1nc(-c2ccccn2)nc(N(C)Cc2ccccc2)c1Cl
normalized growth: 0.96

Give normalized growth for each listed item.
1. S=C(NNC(=S)NC1CC2C=CC1C2)Nc1ccc(Br)c(Cl)c1 (stereo unspecified)
2. COc1ccc2nc3ccccc3c(N)c2c1

1. 0.975
2. 0.659
